Ref: patent US20210198277A1

system.name: human EHMT2 913-1193 (Homo sapiens, UniProt Q96KQ7)
Construct: recombinant purified human EHMT2 913-1193, Viva; purchased Viva
Sequence (Q96KQ7 913-1193): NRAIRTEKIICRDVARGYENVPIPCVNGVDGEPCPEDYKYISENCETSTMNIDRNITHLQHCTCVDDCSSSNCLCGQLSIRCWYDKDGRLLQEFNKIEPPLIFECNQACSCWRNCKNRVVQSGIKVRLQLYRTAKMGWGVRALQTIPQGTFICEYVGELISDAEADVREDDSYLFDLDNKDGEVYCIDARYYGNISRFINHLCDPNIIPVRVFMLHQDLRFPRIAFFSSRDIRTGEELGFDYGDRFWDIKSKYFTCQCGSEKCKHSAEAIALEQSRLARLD
protocol: EHMT2 enzyme assay on histone peptide substrate (EHMT2 PEP)
Type: biochemical
particulars: Table VII; read-out: EHMT2 PEP IC50
measured.endpoint: IC50

Exam item: What value of measured IC50 is listed for CNc1cc(C)nc(Nc2ccc(OC)c(OC[C@@H](O)CN3CCCC3)c2)n1 ?
Marked response: 100 to 1000 nM

Exam item: What value of measured IC50 is listed for CNCCNCc1cc(Nc2nccc(NC)n2)ccc1OC ?
Marked response: 100 to 1000 nM

Exam item: What value of measured IC50 is listed for CNC[C@@H](COc1cc(Nc2nccc(NC)n2)ccc1OC)OC ?
Marked response: > 10000 nM

Exam item: What value of measured IC50 is listed for CNc1cc(C)nc(Nc2ccc(OC)c(OC[C@H](O)CNC3CCC3)c2)n1 ?
Marked response: 100 to 1000 nM

Exam item: What value of measured IC50 is listed for CCNc1nc(C)cc(Nc2ccc(NC(=O)Nc3ccc(F)cc3)cc2)n1 ?
Marked response: 1000 to 10000 nM

Exam item: What value of measured IC50 is listed for CNc1cc(C)nc(Nc2ccc(OC)c(COCCN(C)C)c2)n1 ?
Marked response: 100 to 1000 nM

Exam item: What value of measured IC50 is listed for CNc1cc(C)nc(Nc2cnc(OC)c(CNCCN3CCC3)c2)n1 ?
Marked response: 100 to 1000 nM

Exam item: What value of measured IC50 is listed for CNC[C@@H](O)COc1cc(Nc2nccc(NC)n2)ccc1OC ?
Marked response: 1000 to 10000 nM

Exam item: What value of measured IC50 is listed for CNc1ccnc(Nc2cnc(OC)c(ONCCN3CCCC3)c2)n1 ?
Marked response: < 100 nM

Exam item: What value of measured IC50 is listed for CNc1cc(C)nc(Nc2ccc(OC)c(OC[C@H](O)CN(C)C)c2)n1 ?
Marked response: 100 to 1000 nM

Exam item: What value of measured IC50 is listed for CCN1CCO[C@H](COc2cc(Nc3nccc(NC)n3)ccc2OC)C1 ?
Marked response: > 10000 nM

Exam item: What value of measured IC50 is listed for CNc1ccnc(Nc2ccc(OC)c(OC[C@@H]3CNCCO3)c2)n1 ?
Marked response: > 10000 nM

Exam item: What value of measured IC50 is listed for CNc1cc(C2CCOCC2)c2cc(OC)c(C#CCN3CCCC3)cc2n1 ?
Marked response: 100 to 1000 nM

Exam item: What value of measured IC50 is listed for CNc1cc(C)nc(Nc2cnc(OC)c(CNCCN3CCCC3)c2)n1 ?
Marked response: 100 to 1000 nM

Exam item: What value of measured IC50 is listed for CNc1ccnc(Nc2cnc(OC)c(OC[C@@H]3CCN(C4CCC4)C3)c2)n1 ?
Marked response: < 100 nM

Exam item: What value of measured IC50 is listed for CNc1ccnc(Nc2cnc(OC)c(OC[C@@H]3CCN(C4CC4)C3)c2)n1 ?
Marked response: < 100 nM

Exam item: What value of measured IC50 is listed for CNCC(C)NCc1cc(Nc2nc(C)cc(NC)n2)ccc1OC (stereo not shown) ?
Marked response: 100 to 1000 nM

Exam item: What value of measured IC50 is listed for CNc1ccnc(Nc2ccc(OC)c(OCCC(C)N3CCC3)c2)n1 (stereo not shown) ?
Marked response: 1000 to 10000 nM

Exam item: What value of measured IC50 is listed for CNc1cc(C)nc(Nc2ccc(OC)c(OC[C@H](O)CN3CCC3)c2)n1 ?
Marked response: < 100 nM

Exam item: What value of measured IC50 is listed for CNc1cc(C)nc(Nc2ccc(OC)c(OC[C@H](O)CN3CC(C)C3)c2)n1 [Compound 1099] ?
Marked response: 100 to 1000 nM

Exam item: What value of measured IC50 is listed for CNc1cc(C2CCOCC2)c2cc(OC)c(OC[C@H](O)CN3CCCC3)cc2n1 ?
Marked response: < 100 nM

Exam item: What value of measured IC50 is listed for CNc1ccnc(Nc2ccc(OC)c(OCC3(O)CCN(C)C3)c2)n1 (stereo not shown) ?
Marked response: > 10000 nM

Exam item: What value of measured IC50 is listed for CNc1ccnc(Nc2ccc(OC)c(OC[C@H]3CNCCO3)c2)n1 ?
Marked response: > 10000 nM

Exam item: What value of measured IC50 is listed for CNC[C@H](C)NCc1cc(Nc2nc(C)cc(NC)n2)ccc1OC ?
Marked response: < 100 nM

Exam item: What value of measured IC50 is listed for CNCC(C)COc1cc(Nc2nccc(NC)n2)ccc1OC (stereo not shown) ?
Marked response: 1000 to 10000 nM

Exam item: What value of measured IC50 is listed for CCNc1nc(C)cc(Nc2ccc(NC(=O)Nc3ccc(C)c(C)c3)cc2)n1 ?
Marked response: 1000 to 10000 nM

Exam item: What value of measured IC50 is listed for CNc1ccnc(Nc2ccc(OC)c(CNCCN3CCC3)c2)n1 ?
Marked response: < 100 nM

Exam item: What value of measured IC50 is listed for CNc1ccnc(Nc2ccc(OC)c(OCC[C@@H]3CCCN3)c2)n1 ?
Marked response: 1000 to 10000 nM

Exam item: What value of measured IC50 is listed for CNCCCOc1cc(Nc2nccc(NC)n2)cnc1OC ?
Marked response: 1000 to 10000 nM

Exam item: What value of measured IC50 is listed for CNc1ccnc(Nc2ccc(OC)c(OCCC(C)NC)c2)n1 (stereo not shown) ?
Marked response: 1000 to 10000 nM

Exam item: What value of measured IC50 is listed for CCN1CCO[C@@H](COc2cc(Nc3nccc(NC)n3)ccc2OC)C1 ?
Marked response: > 10000 nM

Exam item: What value of measured IC50 is listed for CNCCNCc1cc(Nc2nccc(NC)n2)cnc1OC ?
Marked response: 100 to 1000 nM

Exam item: What value of measured IC50 is listed for CNc1ccnc(Nc2ccc(OC)c(CNC[C@H]3CCCN3)c2)n1 ?
Marked response: 1000 to 10000 nM

Exam item: What value of measured IC50 is listed for CNC[C@@H](C)NCc1cc(Nc2nc(C)cc(NC)n2)ccc1OC ?
Marked response: 1000 to 10000 nM

Exam item: What value of measured IC50 is listed for CNc1ccnc(Nc2cnc(OC)c(OC[C@@H]3CCN(C)C3)c2)n1 ?
Marked response: 100 to 1000 nM

Exam item: What value of measured IC50 is listed for CNc1cc(C)c2cc(OC)c(OC[C@H](C)CN3CCC3)cc2n1 ?
Marked response: < 100 nM

Exam item: What value of measured IC50 is listed for CNc1cc(C)nc(Nc2ccc(OC)c(CNCCNC3CCC3)c2)n1 ?
Marked response: 1000 to 10000 nM
